Origin of measurements: the Human Domainome abundance scans (Beltran et al. 2025)

B1: Cytoplasmic polyadenylation element-binding protein 2, residues 513 to 575; numbered along this chain, Q7Z5Q1 (parent)
chain: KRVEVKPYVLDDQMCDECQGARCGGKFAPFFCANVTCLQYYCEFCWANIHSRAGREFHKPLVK

variants of: B1; test: abundance fitness (aPCA) (normalised: wild type 0, dead -1); higher = more abundant; growth selection in yeast, the domain comes from the species named; conditions: Homo sapiens
Recorded abundance fitness for the following variants
Please reply with the value in numeric form only.

INSERT INTO measurements (residue_change, measured) VALUES
  ('N48K', 0.164),
  ('A47M', 0.019),
  ('V9S', 0.058);

Let us examine a further case.
Input D16C , output reported abundance fitness.
0.053
